Just for reference, patent US20230192831A1 is where these values come from.

Target: recombinant human GREM1 (hGREM1-His; C-terminal 10His tagged, R&D, #5190-GR) (human) (UniProt O60565)
Sequence (O60565 other isoform, or with tags, fused parts or gaps limits assumed, form in doubt): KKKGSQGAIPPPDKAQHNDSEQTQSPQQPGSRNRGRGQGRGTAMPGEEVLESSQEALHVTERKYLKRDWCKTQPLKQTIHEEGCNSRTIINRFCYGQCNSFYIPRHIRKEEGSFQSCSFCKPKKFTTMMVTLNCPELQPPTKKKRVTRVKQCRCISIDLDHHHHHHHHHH
Assay: BLI Octet, captured mAb, 100 nM GREM1 without vs with 5 uM heparin
ENDPOINT NAME: Reduction in Signal from Heparin at 300 sec

INPUT: What value of Reduction in Signal from Heparin at 300 sec has been reported for the following binder? H4H6240P (antibody, human IgG4, V domains shown) VH: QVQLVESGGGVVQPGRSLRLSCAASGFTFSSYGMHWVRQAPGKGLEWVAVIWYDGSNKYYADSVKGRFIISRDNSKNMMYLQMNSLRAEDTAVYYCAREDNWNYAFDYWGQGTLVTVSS VL: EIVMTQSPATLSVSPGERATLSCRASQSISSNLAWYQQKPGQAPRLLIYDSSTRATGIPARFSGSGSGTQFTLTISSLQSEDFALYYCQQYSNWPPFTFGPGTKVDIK
OUTPUT: 0.16 nm

INPUT: Can you share its Reduction in Signal from Heparin at 300 sec? I mean this binder: H4H6246P (antibody, human IgG4, V domains shown) VH: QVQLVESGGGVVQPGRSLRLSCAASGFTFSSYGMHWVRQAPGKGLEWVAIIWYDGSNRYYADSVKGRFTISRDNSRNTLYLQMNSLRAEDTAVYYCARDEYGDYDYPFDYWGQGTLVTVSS VL: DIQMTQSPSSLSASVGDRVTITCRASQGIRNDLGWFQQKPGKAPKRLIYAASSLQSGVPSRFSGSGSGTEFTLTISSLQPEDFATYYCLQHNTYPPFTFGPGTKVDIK
OUTPUT: 0.04 nm

INPUT: Requested field: Reduction in Signal from Heparin at 300 sec. Item: H4H2783N2 (antibody, human IgG4, V domains shown) VH: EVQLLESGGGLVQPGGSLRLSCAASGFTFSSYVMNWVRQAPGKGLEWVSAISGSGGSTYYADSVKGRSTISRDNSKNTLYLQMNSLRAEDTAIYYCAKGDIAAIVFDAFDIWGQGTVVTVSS VL: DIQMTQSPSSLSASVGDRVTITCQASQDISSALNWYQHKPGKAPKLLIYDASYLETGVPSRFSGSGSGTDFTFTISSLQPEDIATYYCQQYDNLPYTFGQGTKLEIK
OUTPUT: 0.18 nm
